Source listed as a melting point compilation (Tetko et al.).

A collection of compounds and their measured melting point

Examples from the recorded data:
compound: c1cn(-c2cncnc2)cn1
result: 129 to 131 °C

compound: O=C(CCl)N(Cc1ccccc1)c1ccccc1
result: 79 to 81 °C

compound: Cc1ncc2ccccn12
result: 46 to 48 °C

So for CS(=O)(=O)c1ccc(F)c(N)c1 , the logged melting point turned out to be 69 to 71 °C

====

Entries and their measured melting point follow.

For orientation, consider the following solved cases.
compound: Cc1cc(N)nn1-c1ccc(Cl)cc1Cl
melting point: 101 to 103 °C
//
compound: Nc1ccc2c(c1)S(=O)(=O)NC2=O
melting point: 279 to 281 °C
//
compound: S=C1NC2CCCCC2N1 (centres undefined)
melting point: 134 to 136 °C
//
compound: O=C1C=CC(=O)N1CCc1ccccc1F
melting point: 106 to 108 °C
//
compound: NS(=O)(=O)c1cnn(CCC(=O)O)c1
melting point: 126 to 128 °C

Please look at the following compound next.
compound Nc1cc(Br)cc(C(=O)O)c1 , melting point observed: 217 to 221 °C

====

Recorded melting point by entry

Use these answered entries as a reference point.
compound: C#CCn1cnc2c(N)ncnc21
measure_name: melting point
result: 184 to 186 °C

compound: Cc1nnc2cc(Cl)ncn12
measure_name: melting point
result: 122 to 124 °C

compound: NC(=O)c1cc(C(=O)O)nn1-c1ccccc1
measure_name: melting point
result: 269 to 271 °C

compound: CCn1c(C)cs/c1=N\c1ccc(Cl)cc1
measure_name: melting point
result: 190 to 192 °C

compound: O=Cc1sc(N2CCCCC2)nc1-c1cccs1
measure_name: melting point
result: 117 to 119 °C

Entry O=C(N=C=S)c1ccc(Cl)c(Cl)c1 , melting point reported as 49 to 51 °C

Per the record, COc1cccc(-c2cc(N)n(C)n2)c1 has melting point of 94 to 96 °C

The compound listed as COc1c(C(=O)O)cc(Cl)cc1[N+](=O)[O-] shows melting point equal to 161 to 163 °C

Record COc1ccc(C2(C)NC(=O)N(NC(=O)CCl)C2=O)cc1 (stereo not given) , field melting point: 124 to 126 °C

GET /value?item= Cc1ccc(C)c(Sc2ncccc2C(=O)O)c1 &field=melting point returns 188 to 190 °C

# compound Cc1ncc(NC(=O)OC(C)(C)C)s1 ; its melting point = 147 to 149 °C

Kindly note the recorded melting point for O=C1c2ccccc2C(=O)N1CC1CN(Cc2ccccc2)CCO1 (stereo not given) , which is 136 to 138 °C

The reported value for CC(SCC(=O)Nc1cccc(Br)c1)C(=O)O (stereo not given) in terms of melting point is 106 to 108 °C

Entry CC(C)=CCSCC(N)C(=O)O (stereo not given) — recorded melting point = 189 to 191 °C

For this compound ( CCOC(=O)c1ncoc1-c1scnc1C ), measured melting point is 78 to 80 °C

Input Nn1c(S)nnc1Cc1ccc(F)cc1 . Output melting point: 203 to 205 °C

The compound identified as O=C1c2ccccc2C(=O)N1CCCCCCO registered its melting point at 57 to 59 °C

====

measure_name: melting point

Solved entries (count: 4):
molecule: O=C(O)c1cc(COc2c(Cl)cccc2Cl)on1
melting point: 159 to 161 °C

molecule: CC(C)(C)OC(=O)N1CCC(OS(C)(=O)=O)CC1
melting point: 84 to 86 °C

molecule: CC1(C)Cc2cc(C(=O)O)sc2-c2ccccc21
melting point: 209 to 211 °C

molecule: Nc1nnc(-c2ccc(Br)cc2)[nH]1
melting point: 214 to 216 °C

Consider CC(C)(C)C(=O)N1CSCC1C(=O)O (configuration not stated) . Its measured melting point is 118 to 120 °C

Sample O=C1CCc2c(OCc3ccccc3)cccc21 ; melting point observed: 71 to 73 °C

Looking up Cc1cc(CSc2ncccc2C(=O)O)no1 , I see its melting point listed as 169 to 171 °C

Given item O=C(O)c1cccnc1Oc1cccc(Br)c1 , the value recorded as its melting point is 167 to 169 °C

For Cc1cc(C(=O)C(C)Cl)c(C)n1-c1ccccc1 (configuration not stated) the molecule record lists melting point as 78 to 82 °C

So, CCOc1ccc(-c2nnc(SC(F)F)n2CCC(=O)O)cc1 ? Its melting point was 198 to 200 °C

====

Collected melting point values appear next to each entry.

molecule: Nc1nc(CC(=O)c2ccccc2)cs1
result: 157 to 159 °C

molecule: Cc1cnc(-c2cccc(N)c2)o1
result: 107 to 109 °C

molecule: COc1ncc(N)cc1C(N)=O
result: 144 to 146 °C

Now examine the next entry.
Lab book: melting point of COc1ccc(C=O)cc1OCC(N)=O noted as 136 to 138 °C

====

measure_name: melting point

Solved entries (count: 5):
compound: O=C1c2ccc(S(=O)(=O)Cl)cc2CCC1Cl (stereo not drawn)
melting point: 124 to 126 °C

compound: CN(C)C(=O)Cc1ccccc1N
melting point: 69 to 71 °C

compound: CC(=O)c1cccc(N2CCOC2=O)c1
melting point: 82 to 84 °C

compound: FC(F)(F)Oc1ccc(-n2nnnc2S)cc1
melting point: 123 to 125 °C

compound: Fc1ccc(-c2csc(Nc3ccccc3)n2)cc1
melting point: 91 to 93 °C

// sample CCN(CC)S(=O)(=O)c1ccc(C=CC(=O)O)cc1 , its melting point was 184 to 186 °C

FC(F)n1ccnc1CN1CCNCC1 yielded melting point of 73 to 75 °C

# compound COc1cc(OCC(=O)O)ccc1[N+](=O)[O-] ; its melting point = 195 to 197 °C

The compound Cc1cc(Cl)c2cc([N+](=O)[O-])ccc2n1 showed melting point equal to 140 to 142 °C

The measured melting point associated with Cc1ccc(S(=O)(=O)Nc2ccc(Cl)cc2)cc1N reads 104 to 106 °C

====

Catalogue of melting point values

compound: CC1CC1C(N)=O (stereo not drawn)
result: 93 to 95 °C

compound: NNc1nc(C(F)(F)F)cs1
result: 122 to 124 °C

compound: CNc1scnc1C(=O)O
result: 99 to 101 °C

compound: Cc1ccc(CCCCC(=O)O)cc1
result: 75 to 77 °C

compound: NNC(=O)Cc1ccccn1
result: 111 to 113 °C

compound: Cc1cc(C(=O)NN)c(C)n1-c1ccc(F)cc1
result: 160 to 162 °C

Looking up C1CCC(C2CCNCC2)CC1 , I found its melting point recorded as 73 to 75 °C

Reported melting point of O=Cc1cnn(-c2ccc(Br)cc2)c1 : 124 to 126 °C

====

The entries below are paired with their reported melting point.

Worked cases, melting point given:
molecule: NC(=NO)c1cc(Br)cs1
melting point: 132 to 134 °C
//
molecule: CC(=O)Oc1ccc(CCl)cc1
melting point: 29 to 31 °C
//
molecule: Cc1ccc(SCCC(=O)NN)cc1
melting point: 106 to 108 °C

Notebook: CC(=O)N1CC(C(=O)O)C1 , melting point read as 149 to 151 °C

melting point recorded for this molecule, CCCNS(=O)(=O)c1cccc(C(=O)O)c1 , is 199 to 201 °C

# melting point (molecule: N#Cc1ccc(N2CCOC2=O)nc1 ) is 186 to 188 °C

Value of melting point reported for the molecule CCN(CC)S(=O)(=O)c1ccc(=O)n(CC(=O)O)c1 is 182 to 189 °C

Entry under test: Cn1c(CO)nnc1C1CCC1 . Its melting point was 133 to 135 °C

Noted for Cc1noc(C)c1CSCC(=O)O : its melting point reads 92 to 94 °C

Sure, the documented melting point for Cc1nn(C)c(=O)c(C(=O)N2CSCC2C(=O)O)c1C (centres undefined) is 209 to 211 °C

melting point for O=C(CCl)c1ccc2c(c1)CCCC2 is 62 to 64 °C

Lab note: measured melting point of NNc1ccccc1S(=O)(=O)N1CCOCC1 was 141 to 143 °C

Recorded melting point (molecule CSc1nc(Cl)cc(NN)n1 ): 154 to 156 °C

Form field melting point, entry Cc1nc(NC(=O)NN)no1 : 288 to 290 °C

====

List of melting point values.

The cases that follow already have their melting point on record.
molecule: Nc1c(-c2ccncc2)nc2ccccn12
melting point: 211 to 213 °C
--
molecule: CC(=O)OCC(N)=S
melting point: 75 to 77 °C
--
molecule: C=CCOc1ccc(C(F)(F)F)cc1C(=O)O
melting point: 58 to 60 °C

// next entry
Entry O=C(O)c1cc(F)ccc1-n1ccnc1 , melting point reported as 229 to 231 °C

====

Measured melting point, listed per entry.

compound: NCC(O)c1ccc2ccccc2c1 (stereo not drawn)
melting point: 115 to 117 °C
//
compound: COc1ccccc1-c1nnc(CCl)o1
melting point: 86 to 88 °C
//
compound: CN(C)C(=O)c1cccc(C(=O)O)c1
melting point: 134 to 136 °C
//
compound: CCOCCNC(=O)c1ccc(Br)cc1
melting point: 99 to 101 °C
//
compound: N#Cc1cc(C(F)(F)F)ccc1N
melting point: 72 to 74 °C
//
compound: c1cc2[nH]nnc2cn1
melting point: 240 to 242 °C
//
compound: COc1cc(/C=C/C(=O)O)ccc1OC(C)C
melting point: 83 to 87 °C
//
compound: CCCC1(c2ccccc2)NC(=O)NC1=O (stereo not drawn)
melting point: 172 to 174 °C

Here is the next item to consider.
Lab note: O=C(O)c1cnc2onc(C3CC3)c2c1 gave melting point of 206 to 208 °C
